- Test system: EMT-6 mammary tumors
- protocolText: Biodistribution in EMT-6 BALB/C mice
- Assay type: in vivo
- details: fat, 1 hour
Readings of % ID per gram fat for the listed molecules

// known answers, use as guide
molecule	% ID per gram fat
COc1cc2c(cc1OC)CN(CCNC(=O)c1cc([125I])ccc1OC)CC2 [[^125I]8i]	0.77 ± 0.66 % ID per gram
COc1cc2c(cc1OC)CN(CCCCNC(=O)c1cc([76Br])cc(OC)c1OC)CC2 [[^76Br]6]	0.81 ± 0.16 % ID per gram
COc1cc2c(cc1OC)CN(CCCCNC(=O)c1cc(Br)cc(OC)c1O[11CH3])CC2 [[^11C]6]	0.20 ± 0.08 % ID per gram
COc1cc2c(cc1OC)CN(CCCCNC(=O)c1cc(C)cc(OC)c1O[11CH3])CC2 [[^11C]10]	0.33 ± 0.24 % ID per gram

Prompt: What measured % ID per gram fat goes with COc1cc2c(cc1OC)CN(CCNC(=O)c1cc(C)ccc1O[11CH3])CC2 [[^11C]9] ?
Completion: 0.26 ± 0.09 % ID per gram

Prompt: What measured % ID per gram fat goes with COc1cc2c(cc1OC)CN(CCCCNC(=O)c1cc([125I])cc(OC)c1OC)CC2 [[^125I]6i] ?
Completion: 0.74 ± 0.17 % ID per gram

Reference for the values: patent US7893266B2
